Target: CXCL8 receptors on bovine peripheral blood neutrophils
Assay: displacement of 20 pM 125I-CXCL8 from 10^6 bovine neutrophils, 45 min on ice
READOUT: IC50 (pM)
Numbers only, in pM.

Documented IC50 of bovine CXCL8(3-74)K11R/G31P (ligand) TELRCQCIRTHSTPFHPKFIKELRVIESPPHCENSEIIVKLTNGNEVCLNPKEKWVQKVVQVFVKRAEKQDP : 4

Data provenance is patent US20090270318A1.
